# system-tested: T1, SsPCP, PCP of a thaxtomin cluster from Streptomyces scabiei 87.22
# T1 chain: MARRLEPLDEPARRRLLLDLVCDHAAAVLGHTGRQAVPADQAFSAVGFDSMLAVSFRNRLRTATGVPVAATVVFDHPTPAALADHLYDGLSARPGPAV

| protein | Km, µM |
| --- | --- |
| SPPT, Sfp-like phosphopantetheinyl transferase (PPTase) from Synechocystis sp. PCC6803 (protein) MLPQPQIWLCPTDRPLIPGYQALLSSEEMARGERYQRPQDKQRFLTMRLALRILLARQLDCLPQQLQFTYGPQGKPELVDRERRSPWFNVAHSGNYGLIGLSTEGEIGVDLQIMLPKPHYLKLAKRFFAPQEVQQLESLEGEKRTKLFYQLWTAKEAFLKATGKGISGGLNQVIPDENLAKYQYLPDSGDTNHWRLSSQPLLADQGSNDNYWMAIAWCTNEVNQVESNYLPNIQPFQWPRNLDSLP | 14.3 |
